target: Pro-Link-tagged Human GLP-1R (human, UniProt P43220 24-463); assay: cell-based or functional assay
MEASURE: hGLP1R B-Arrestin2 Rel EC50
Please give the number followed by its unit.

Reference set (5 entries):
XXEGTFTSDYSIXLDKKAQXAFIXYLIAGGPSSGAPPPS (D-Tyr1, Aib2, αMeL13, K17 conjugated to (2-[2-(2-Amino-ethoxy)-ethoxy]-acetyl)2-(γ-Glu)-CO-(CH2)18-CO2H, Aib20, D-Glu24, C-terminal amide (NH2)) [Example 352] = 4.21 nM
XXEGTFTSDYSIXLDXKAQXAFIXYLIEGGPSSGAPPPS (D-Tyr1, Aib2, αMeL13, Orn16, K17 conjugated to (2-[2-(2-Amino-ethoxy)-ethoxy]-acetyl)2-(γ-Glu)-CO-(CH2)18-CO2H, Aib20, D-Glu24, C-terminal amide (NH2)) [Example 357] = 118 nM
YXEGTFTSDYSIXLDEKAQXDFIEYLIAGGPSSGAPPPS (not fully specified; Aib2, αMeL13, K17 conjugated to (2-[2-(2-Amino-ethoxy)-ethoxy]-acetyl)2-(γ-Glu)-CO-(CH2)18-CO2H, Aib20, C-terminal amide (NH2)) [Example 344] = 34.3 nM
XXEGTFTSDYSIXLDKKAQXEFIEXLIEGGPSSGAPPPS (D-Tyr1, Aib2, αMeL13, K17 conjugated to (2-[2-(2-Amino-ethoxy)-ethoxy]-acetyl)2-(γ-Glu)-CO-(CH2)18-CO2H, Aib20, αMeY25, C-terminal amide (NH2)) [Example 379] = 18.1 nM
YXEGTXTSDYSIXLDXKAQXEFIXYLIEGGPSSGAPPPS (Aib2, αMeF(2F)6, αMeL13, Orn16, K17 conjugated to (2-[2-(2-Amino-ethoxy)-ethoxy]-acetyl)2-(γ-Glu)-CO-(CH2)16-CO2H, Aib20, D-Glu24, C-terminal amide (NH2)) [Example 2] = 8.82 nM

**Q:** Given the binder XXEGTFTSDYSIXLDKKAQXEFIEXLIAGGPSSGAPPPS (D-Tyr1, Aib2, αMeL13, K17 conjugated to (2-[2-(2-Amino-ethoxy)-ethoxy]-acetyl)2-(γ-Glu)-CO-(CH2)16-CO2H, Aib20, αMeY25, C-terminal amide (NH2)) [Example 374] , what is its reported hGLP1R B-Arrestin2 Rel EC50?
**A:** 21.8 nM
